Target: T1, LGR8 (leucine-rich repeat-containing GPCR 8) (human, UniProt Q8WXD0 1-754)
T1 construct: whole, on cells; The methods say only 'recombinant LGR8' stably expressed in HEK293T cells; also called RFXR2; recombinant LGR8
T1 sequence (Q8WXD0 whole entry): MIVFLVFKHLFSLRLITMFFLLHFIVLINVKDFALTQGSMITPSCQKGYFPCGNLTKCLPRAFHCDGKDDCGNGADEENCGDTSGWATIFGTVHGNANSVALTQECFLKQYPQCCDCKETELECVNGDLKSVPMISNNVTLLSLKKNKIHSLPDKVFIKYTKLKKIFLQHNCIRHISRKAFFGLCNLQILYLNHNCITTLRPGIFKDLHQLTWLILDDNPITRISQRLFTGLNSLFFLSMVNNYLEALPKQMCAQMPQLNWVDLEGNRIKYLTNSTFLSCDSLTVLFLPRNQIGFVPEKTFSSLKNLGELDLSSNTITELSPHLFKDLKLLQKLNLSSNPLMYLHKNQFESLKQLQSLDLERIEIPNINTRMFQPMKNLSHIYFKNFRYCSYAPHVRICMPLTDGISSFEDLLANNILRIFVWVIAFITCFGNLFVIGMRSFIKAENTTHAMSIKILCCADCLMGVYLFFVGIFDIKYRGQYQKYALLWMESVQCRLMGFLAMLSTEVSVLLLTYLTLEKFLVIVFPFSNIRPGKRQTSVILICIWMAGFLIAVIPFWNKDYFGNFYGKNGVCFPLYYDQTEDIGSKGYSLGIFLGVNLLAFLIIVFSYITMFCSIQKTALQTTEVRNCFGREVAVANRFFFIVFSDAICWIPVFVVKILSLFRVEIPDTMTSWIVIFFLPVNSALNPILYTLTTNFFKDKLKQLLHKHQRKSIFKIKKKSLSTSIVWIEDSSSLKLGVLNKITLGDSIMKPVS
Assay: competition with 125I-RLN2 tracer on LGR8-expressing HEK293T cells
Where no end group is shown, it is not given here.
// values below are reported pIC50
READOUT_LABEL: pIC50

{"columns": ["BINDER", "NUMERIC_RESULT"],
 "data": [
  ["RLN2^A19-20 (ligand, not shown: small tags and cut ends, It is read here as both residues changed to alanine) chain 1: SWMEEVIKLCGRELVRAQIAICGMSTWSHHHHHH chain 2: QLYSALANKCCHVGCTKRAAARFC", 7.51],
  ["RLN2 R^A18A (ligand, not shown: small tags and cut ends) chain 1: SWMEEVIKLCGRELVRAQIAICGMSTWSHHHHHH chain 2: QLYSALANKCCHVGCTKASLARFC", 7.46],
  ["RLN2 R^A22A (ligand, not shown: small tags and cut ends, not fully specified; ends and bridges not checked; also: N-terminal Myc epitope tag, Construct with the 8-amino acid linker, processed to the mature two-chain form) chain 1: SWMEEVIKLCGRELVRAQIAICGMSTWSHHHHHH chain 2: QLYSALANKCCHVGCTKRSLAAFC", 6.8],
  ["WT RLN2 (recombinant wild type human RLN2, Myc- and His6-tagged) (ligand, not shown: small tags and cut ends, also called wild type RLN2; wild type peptide) chain 1: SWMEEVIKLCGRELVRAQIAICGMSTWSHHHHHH chain 2: QLYSALANKCCHVGCTKRSLARFC", 7.9],
  ["RLN2 T^A16A (ligand, not shown: small tags and cut ends, not fully specified; ends and bridges not checked; also: N-terminal Myc epitope tag, Construct with the 8-amino acid linker, processed to the mature two-chain form) chain 1: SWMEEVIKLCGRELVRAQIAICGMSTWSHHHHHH chain 2: QLYSALANKCCHVGCAKRSLARFC", 7.74]
]}
